System: MALME-3M melanoma
test: NCI-60 one-dose screen, 48 h (100 = growth as untreated, 0 = no growth, -100 = all killed)
run-conditions: 10 µM unless noted
The panel holds about 83,000 compounds, 20% with a hit somewhere; the sample as a whole holds those more often. The source made the active and inactive calls. The calls were made as follows: active = growth percent below 10; inactive = the rest.
quantity-kind: growth

The cases that follow already have their growth on record.
structure-smiles-string | system | growth
CC1=C2[C@@H](CC1)[C@]1(C)O[C@@](C3CC3)(C[C@H]1OC(=O)CO)[C@H]2OC(=O)/C=C/c1ccccc1 | MALME-3M melanoma | 90.9% (inactive)
O=c1c(/C=C/c2ccco2)nnc2sc(Nc3ccc(Cl)cc3)nn12 | MALME-3M melanoma | 100% (inactive)

If you can, please state the reported growth value of `N#Cc1ccccc1OCC(=O)Nc1nc2c(s1)COc1ccccc1-2` .
107% (inactive)

* * *

System: IGROV1 ovarian
test: NCI-60 one-dose screen, 48 h (100 = growth as untreated, 0 = no growth, -100 = all killed)
run-conditions: 10 µM unless noted
Compounds without any hit were thinned out: in the full panel of roughly 83,000, 20% have a hit. The source made the active and inactive calls. The calls were made as follows: active = growth percent below 10; inactive = the rest.
quantity-kind: growth

compound | growth
COc1ccc2c(c1)c(C(=O)c1nc(-c3cn(C)c4ccccc34)no1)cn2C | 86.5% (inactive)
COc1ccc2c(c1)c(-c1nc(-c3c[nH]c4c(Cl)nccc34)cs1)cn2C | 56.5% (inactive)
Clc1ccc2c(NCCN3CCN(c4ccnc(N5CCCC5)n4)CC3)ccnc2c1 | 47.8% (inactive)
Cc1cccc(-c2nnc(SCC(=O)Nc3ncc(Cc4ccccc4)s3)n2N2C(=O)CSC2=S)c1 | 50.5% (inactive)

If you can, please state the reported growth value of N#CC(Cc1cccc2ccccc12)c1cc2ccccc2[nH]1 (stereo unspecified) .
86.4% (inactive)

If you can, please state the reported growth value of `COc1ccc(Nc2ncnc3ccc(-c4cncc(NS(C)(=O)=O)c4)cc23)cc1Cl` .
3.39% (active)

If you can, please state the reported growth value of `COc1cc2cc(NCc3ccncc3)nc(C)c2cc1OC` .
113% (inactive)

If you can, please state the reported growth value of COc1cccc(NC(=O)c2sc3nc(C)c(C(O)c4ccccc4)cc3c2N)c1 (stereo unspecified) .
25.7% (inactive)

If you can, please state the reported growth value of `Cc1ccc(-c2nc3nc(-c4ccccc4)nc(N4CCCNCC4)c3o2)cc1` .
-73.8% (active)

If you can, please state the reported growth value of `CCN(C(=O)N1CCN(c2cc3c(cc2F)c(=O)c(C(=O)O)cn3C2CC2)CC1)c1nc(-c2ccccc2)cs1` .
12.5% (inactive)

If you can, please state the reported growth value of `O=C(/C=C/c1ccc(F)cc1)Nc1ncc(Cc2ccc(F)cc2)s1` .
46.8% (inactive)

* * *

System: RXF 393 renal
test: NCI-60 one-dose screen, 48 h
run-conditions: 10 µM unless noted
This is part of a sample that, as a whole, favours compounds with a hit. Of some 83,000 tested, about 20% had one in any assay. The source made the active and inactive calls. How the source made its calls: active means growth percent below 10; inactive means the rest.
Write down the outcome that applies. Available outcomes: active, inactive

Some entries whose results are on file:
molecule | system | qualitative-label
COc1ccc2c(c1)CC[C@@H]1[C@@H]2CC[C@]2(C)C3C(=CCC4C(=O)N(c5ccccc5)C(=O)C43)C[C@@H]12 (stereo partly drawn) | RXF 393 renal | inactive
CCOC(=O)CCCn1c(-c2ccccc2)cc(-c2ccccc2)c(C#N)c1=O | RXF 393 renal | inactive
CCn1cc(C(=O)NN=C2CCCC2)c(=O)c2ccc(C)nc21 | RXF 393 renal | inactive
CCN1CCN(C(=O)[C@]23CC[C@@H](C)[C@H](C)[C@@H]2C2=CC[C@@H]4[C@@]5(C)CCC(=O)C(C)(C)[C@@H]5CC[C@@]4(C)[C@]2(C)CC3)CC1 | RXF 393 renal | active

// param item: `Cc1nc(-n2[nH]c(=O)ccc2=O)sc1N=Nc1ccccc1` ; yields the recorded call
inactive

// param item: `CN(C)CCNc1ncc(F)c(-c2cnc3cc(-c4cnn(C)c4)ccn23)n1` ; yields the recorded call
inactive

// param item: `CN(C)CCCn1c2nc(=O)[nH]c(=O)c-2nc2cc(Cl)c(Cl)cc21` ; yields the recorded call
inactive

// param item: `COc1ccc(/C=C/C(=O)c2cc3c(N)c(C(=O)Nc4ccccc4Cl)sc3nc2C)cc1` ; yields the recorded call
active

// param item: CN1CCCc2cc(/C=C3\SC(=S)N(C(Cc4ccc(O)cc4)C(=O)O)C3=O)ccc21 (stereo not drawn) ; yields the recorded call
inactive

// param item: CCCCCC#CC1OC23CCCCC2C(C#N)(C(=N)O3)C1(C#N)C#N (stereo not drawn) ; yields the recorded call
inactive

// param item: `Brc1ccc(/C=C(/C2=NCCN2)n2ccc3ccccc32)cc1` ; yields the recorded call
inactive

// param item: `Cc1n(Cc2ccc3ccccc3c2)c(Cl)c(Cl)[n+]1Cc1ccc2ccccc2c1` ; yields the recorded call
inactive

// param item: `Nc1ccc(/C=N/Nc2ccnc3c(N)cccc23)c2cccnc12` ; yields the recorded call
active

* * *

Below, each of the molecules is paired with its reported growth value.
System: UACC-62 melanoma
test: NCI-60 one-dose screen, 48 h (100 = growth as untreated, 0 = no growth, -100 = all killed)
run-conditions: 10 µM unless noted
About 83,000 compounds went through this panel and 20% of them were active in at least one assay; those are over-represented in the sample as a whole.
Numeric answer only, unit % assumed.

If you can, please state the reported growth value of `Cc1ccc(Cc2cnc(NC(=O)c3cc(C)oc3C)s2)cc1` .
47.6

If you can, please state the reported growth value of COc1ccc(/C=N/C2=C(C#N)C(c3ccccc3)c3c(ccc4ccccc34)O2)cc1 (centres undefined) .
37.3

If you can, please state the reported growth value of `O=C(Nc1ncc(Cc2cccc(C(F)(F)F)c2)s1)c1ccc2c(c1)OCCO2` .
39.9

* * *

Tested on: SW-620 colon
test: NCI-60 one-dose screen, 48 h (100 = growth as untreated, 0 = no growth, -100 = all killed)
run-conditions: 10 µM unless noted
This is part of a sample that, as a whole, favours compounds with a hit. Of some 83,000 tested, about 20% had one in any assay.
quantity-kind: growth (%)
Numeric answer only, unit % assumed.

compound | unit-symbol | reported-value
NC(=O)c1c(NC(=O)/C=C/c2cccs2)sc2c1CCC(=O)C2 | % | 15.1
Oc1ccccc1C=Nc1ccc(N2CCN(c3ccccc3)CC2)cc1 | % | 110
COc1ccc(-c2nc(Cl)c3c(C)nn(-c4ccc(F)cc4)c3n2)cc1 | % | 103
CCN1C(=O)/C(=c2\sc3n(c2=O)C2C(NN=3)N(CC)C(=O)N2CC)c2ccccc21 (stereo unspecified) | % | 29.7

If you can, please state the reported growth value of `COc1ccc(-c2cc(-c3cccc(Cl)c3)c(C#N)c(=O)[nH]2)c(OC)c1` .
96.3

If you can, please state the reported growth value of `C/C(=C(\c1ccc(OCCN2CCOCC2)cc1)c1ccc(OC(=O)C2CCCCC2)cc1)c1ccc(Cl)cc1` .
96.6

* * *

Below, each of the compounds is paired with its reported growth value.
Test system: SW-620 colon
test: NCI-60 one-dose screen, 48 h (100 = growth as untreated, 0 = no growth, -100 = all killed)
run-conditions: 10 µM unless noted
The panel holds about 83,000 compounds, 20% with a hit somewhere; the sample as a whole holds those more often.
Numeric answer only, unit % assumed.

structure-smiles-string | unit-symbol | growth
CCCCC#Cc1c(/C=C(\CCCC)SCC)n(C)c(=O)[nH]c1=O | % | 106

If you can, please state the reported growth value of `Cn1c(=O)c2c(nc(Nc3cc(=O)[nH]c(=O)[nH]3)n2Cc2ccccc2)n(C)c1=O` .
19.3

If you can, please state the reported growth value of `COC(=O)c1nc(-c2ccc(C)cc2)oc1S(=O)(=O)c1ccc(Cl)cc1` .
80

If you can, please state the reported growth value of `NS(=O)(=O)c1ccc(C(=O)N=Nc2c(O)[nH]c3c(F)cccc23)cc1` .
100

If you can, please state the reported growth value of `S=c1nc(CS)[nH]c2ccccc12` .
98.5

* * *

Tested on: UO-31 renal
test: NCI-60 one-dose screen, 48 h (100 = growth as untreated, 0 = no growth, -100 = all killed)
run-conditions: 10 µM unless noted
This is part of a sample that, as a whole, favours compounds with a hit. Of some 83,000 tested, about 20% had one in any assay.
Below, each of the compounds is paired with its reported growth value.
Numeric answer only, unit % assumed.

The cases that follow already have their growth on record.
compound | system | growth / %
COC(=O)c1nc(-c2ccc(C)cc2)oc1Sc1ccc(C)cc1 | UO-31 renal | 82.6
Cn1cc2c(=O)nc3c(-c4nc5ccccc5[nH]4)n[nH]n3c2n1 | UO-31 renal | 90.8
CN1CCN(CCNC(=O)c2cccc(CN3c4cccc5c4C(=Cc4cccnc43)N(C)C5=O)c2)CC1 | UO-31 renal | 14.3
O=C1/C(=C/c2ccc(-c3cccc(C(F)(F)F)c3)o2)SC(=S)N1CCc1ccc(O)cc1 | UO-31 renal | 52.9
COC(=O)c1nc(-c2ccc(C)cc2)oc1S(=O)(=O)c1ccc(Cl)cc1 | UO-31 renal | 75.1
COc1c(O)c(O)cc2c3c(oc12)CC(c1ccc2c(c1)OCO2)CC3=O (stereo not drawn) | UO-31 renal | 44.7
Nc1ncnc2c1C(c1ccc([N+](=O)[O-])cc1)c1sc3c(F)cccc3c1O2 (stereo not drawn) | UO-31 renal | 68.4
N#C/C(=C\c1ccccc1Cl)c1cc2ccccc2[nH]1 | UO-31 renal | 69.7
CONC1=Nc2cc(NC(N)=NCc3ccccc3)c(N(C)C3CCCCC3)cc2OC1 | UO-31 renal | 75.5
COc1cc(Cl)cc(-c2nn(C(=O)NS(=O)(=O)c3ccc(Cl)cc3)cc2-c2ccncc2)c1 | UO-31 renal | 63

Consider the record given below.
If you can, please state the reported growth value of `O=C(/C=C/c1ccc([N+](=O)[O-])cc1)c1ccccc1` .
74.8

Origin of measurements: PubChem BioAssay (NCI)
